tested on: multi-resistant protein (MRP) efflux proteins; assay: PET Logan graphical analysis of brain VT after probenecid; format: in vivo, Sprague–Dawley rats; conditions: Sprague-Dawley, rat, parietal cortex (relative to plasma), iv, with probenecid 150 mg/kg i.v.; after probenecid 150 mg·kg^−1 i.v., n = 2, metabolite-corrected; read-out: VT (Logan), parietal cortex
measurement.label: Kp

>>> reported_measurement("O=C1N[11C](=O)NC1(c1ccccc1)c1ccccc1 [[^11C]phenytoin]")
0.57

----------
test system: multi-resistant protein (MRP) efflux proteins; test: PET Logan graphical analysis of brain VT after probenecid; assay type: in vivo, Sprague–Dawley rats; conditions: Sprague-Dawley, rat, cerebellum (relative to plasma), iv, with probenecid 150 mg/kg i.v.; after probenecid 150 mg·kg^−1 i.v., n = 2, metabolite-corrected; read-out: VT (Logan), cerebellum
measurement.label: Kp

>>> reported_measurement("O=C1N[11C](=O)NC1(c1ccccc1)c1ccccc1 [[^11C]phenytoin]")
0.61
